target: human GLP-1 receptor (human, UniProt P43220 24-463); experiment: cell-based or functional assay
Starred links: 1 amine or outer side, 2 acyl side, 3 side chain; linkers in the order of their positions; H or OH if unused. Non-standard residues stand in square brackets, D forms with d. Groups on a side chain read outwards from the residue. *: point of attachment. C20 diacid = O=C(O)CCCCCCCCCCCCCCCCCCC(=O)*; C18 diacid = O=C(O)CCCCCCCCCCCCCCCCC(=O)*; γGlu = O=C(O)[C@H](CCC(=O)[*:2])N[*:1]; AEEA = NCCOCCOCC(=O)O; Aib = CC(C)(N)C(=O)O
Kindly state Human GLP-1R potency [EC50 (pM)] for each of the entries shown.
Answers are plain numbers, in pM.

Compound 0129 (peptide) peptide: H[Aib]EGTFTSDVSSYLEEQAARK([AEEA-AEEA-γGlu-C18 diacid])FIEWLVRGRK([AEEA-AEEA-γGlu-C18 diacid])GGEASELSTAALGRLSAELHELATLPRTETGSGSP-NH2: 1.2

Now for a further binder.
Lab book: Human GLP-1R potency [EC50 (pM)] of Compound 0580 (peptide) peptide: H[Aib]EGTFTSDVSSYLEEQAARK([AEEA-AEEA-γGlu-C20 diacid])FIAWLVRGGASELSTAALGRLSAELHELATLPRTETGSGSP-NH2 noted as 7.4
